tested on: anti-NP mAb clone B1-8 (Abcam ab206523) (mouse); assay: FIDA; conditions: binding via NIP hapten; in solution; LNA/2'-OMe as N0; one 5' amino-C6 NIP hapten (carrier strand not stated); BLI: PBS, 0.02% Tween-20, 0.1% BSA, pH 7.4, HJ 0.2-20 nM, temperature not stated; all positive binding is through the NP/NIP hapten, not the nucleic acid
QUANTITY: pKd
Numbers only, as −log10 of the molar value.

Param item = CCGTCCTGAGCC / CACAGTGGACGG / GGCTCACCGATC / GATCGGACTGTG [HJ-1xNIP] ; retrieve measured pKd.
7.70
